Biological target: SARS-CoV-2 spike protein Delta (SARS-CoV-2 (Delta variant))
Experiment: streptavidin bead fluorescence binding
Parameter: Kd (nM)
API: value field is a number in nM; no unit string.

q: Which measured Kd value corresponds to CGCAGCACCCAAGAACAAGGACTGCTTAGGATTGCGATAGGTTCGGAAAAAAGGCGGGTTCCTAGACTTGTACTCAGCCT [S1B6C3-A5-S2A2C1] ?
a: 34.1

----------
Molecular target: SARS-CoV-2 spike protein Delta (SARS-CoV-2 (Delta variant))
Experiment: flow cytometry on Ni-NTA beads
Parameter: Kd (nM)
The answer is to be given in nM; state only the numeric part.

q: Form entry - test system: SARS-CoV-2 spike protein Delta (SARS-CoV-2 (Delta variant)); read-out: Kd; sequence: CGCAGCACCCAAGAACAAGGACTGCTTAGGATTGCGATAGGTTCGGAAAAAAGGCGGGTTCCTAGACTTGTACTCAGCCT [S1B6C3-A5-S2A2C1]
a: 32.6
